Entries with their measured pKi, system human factor VIIa and TF (Homo sapiens, UniProt P08709):
Non-standard residues stand in square brackets, D forms with d. Residues, ends and D or L forms follow the SMILES beside them. *: point of attachment. Phe(4-amidino) = N=C(N)c1ccc(C[C@H](N)C(=O)O)cc1; Cha = N[C@@H](CC1CCCCC1)C(=O)O; Agb = N=C(N)NCC[C@H](N)C(=O)O; Alloc = C=CCOC(=O)*; Acm = CC(=O)NC*
Numbers only, as −log10 of the molar value.

# compound, pKi
data = [
    ("C=CCOC(=O)N[C@@H](Cc1ccc(C(=N)N)cc1)C(=O)N[C@@H](CCC(=O)O)C(=O)N[C@@H](Cc1c[nH]c2ccccc12)C(=O)N[C@@H](CC1CCCCC1)C(N)=O [Alloc--pAph--Glu--Trp--Cha--NH2] (Alloc-[Phe(4-amidino)]EW[Cha]-NH2)", 7.77),
    ("C=CCOC(=O)N[C@@H](Cc1ccc(C(=N)N)cc1)C(=O)N[C@@H](CCC(=O)O)C(=O)N[C@@H](CCCNC(=N)N)C(=O)N[C@@H](CC1CCCCC1)C(N)=O [Alloc--pAph--Glu--Arg--Cha--NH2, Alloc-pAph-Glu-Arg-Cha-NH2] (Alloc-[Phe(4-amidino)]ER[Cha]-NH2)", 7.34),
    ("C=CCOC(=O)N[C@@H](Cc1ccc(C(=N)N)cc1)C(=O)N[C@@H](CCC(=O)O)C(=O)N[C@@H](CSCNC(C)=O)C(=O)N[C@@H](CC1CCCCC1)C(N)=O [Alloc--pAph--Glu--Cys(Acm)--Cha--NH2] (Alloc-[Phe(4-amidino)]EC(Acm)[Cha]-NH2)", 6.92),
]

# input for lookup
State its pKi for this compound: C=CCOC(=O)N[C@@H](Cc1ccc(C(=N)N)cc1)C(=O)N[C@@H](CCC(=O)O)C(=O)N[C@@H](CCNC(=N)N)C(=O)N[C@@H](CC1CCCCC1)C(N)=O (Alloc-[Phe(4-amidino)]E[Agb][Cha]-NH2)
7.92

###

Target: human factor VIIa and TF (Homo sapiens)
Sequence (P08709 213-466 limits assumed): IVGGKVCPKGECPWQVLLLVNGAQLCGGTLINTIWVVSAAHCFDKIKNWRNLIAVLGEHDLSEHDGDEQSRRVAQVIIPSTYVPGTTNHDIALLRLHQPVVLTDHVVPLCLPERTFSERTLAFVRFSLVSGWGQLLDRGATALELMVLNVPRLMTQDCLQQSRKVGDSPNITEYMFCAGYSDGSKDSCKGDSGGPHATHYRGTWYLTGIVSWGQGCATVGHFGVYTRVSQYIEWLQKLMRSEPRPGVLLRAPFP
Sequence (P08709 61-212 limits assumed): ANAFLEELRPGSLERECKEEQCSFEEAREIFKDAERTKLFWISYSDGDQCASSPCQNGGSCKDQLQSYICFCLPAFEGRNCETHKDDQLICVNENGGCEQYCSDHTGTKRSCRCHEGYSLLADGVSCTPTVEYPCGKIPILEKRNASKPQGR
Sequence (P13726 33-295 partner): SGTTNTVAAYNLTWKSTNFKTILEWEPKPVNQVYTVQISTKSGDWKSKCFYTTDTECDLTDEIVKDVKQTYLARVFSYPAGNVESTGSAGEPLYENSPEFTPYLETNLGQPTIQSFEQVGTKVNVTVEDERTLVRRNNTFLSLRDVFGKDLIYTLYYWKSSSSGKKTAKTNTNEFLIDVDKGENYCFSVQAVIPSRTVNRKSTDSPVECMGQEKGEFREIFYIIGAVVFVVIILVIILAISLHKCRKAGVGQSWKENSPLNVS
Non-standard residues stand in square brackets, D forms with d. Residues, ends and D or L forms follow the SMILES beside them. *: point of attachment. Phe(4-amidino) = N=C(N)c1ccc(C[C@H](N)C(=O)O)cc1; Cha = N[C@@H](CC1CCCCC1)C(=O)O; Dab = NCC[C@H](N)C(=O)O; Alloc = C=CCOC(=O)*
endpoint-label: pKi
One number for each entry, as −log10 of the molar value.

# compound, endpoint-label, reported
measured = [
    ("C=CCOC(=O)NCC[C@H](NC(=O)[C@H](CCC(=O)O)NC(=O)[C@H](Cc1ccc(C(=N)N)cc1)NC(=O)OCC=C)C(=O)N[C@@H](CC1CCCCC1)C(N)=O [Alloc--pAph--Glu--Dab(Alloc)--Cha--NH2] (Alloc-[Phe(4-amidino)]E[Dab](Alloc)[Cha]-NH2)", "pKi", 6.82),
    ("C=CCOC(=O)N[C@@H](Cc1ccc(C(=N)N)cc1)C(=O)N[C@@H](CCC(=O)O)C(=O)N[C@@H](CC(N)=O)C(=O)N(Cc1ccccc1)Cc1ccccc1 [Alloc--pAph--Glu--Asn-N,N-dibenzylamide]", "pKi", 6.39),
    ("C=CCOC(=O)N[C@@H](Cc1ccc(C(=N)N)cc1)C(=O)N[C@@H](CCC(=O)O)C(=O)N[C@@H](CSC)C(=O)N[C@@H](CC1CCCCC1)C(N)=O [Alloc--pAph--Glu--Cys(Me)--Cha--NH2] (Alloc-[Phe(4-amidino)]EC(Me)[Cha]-NH2)", "pKi", 6.70),
]

Read the next record carefully.
Identify measured pKi associated with `C=CCOC(=O)N[C@@H](Cc1ccc(C(=N)N)cc1)C(=O)N[C@@H](CCC(=O)O)C(=O)N[C@@H](CNC(=N)N)C(=O)N[C@@H](Cc1ccc(C2(c3ccccc3)SCCS2)cc1)C(N)=O`
7.82

###

Non-standard residues stand in square brackets, D forms with d. Residues, ends and D or L forms follow the SMILES beside them. *: point of attachment. Phe(4-NO2) = N[C@@H](Cc1ccc([N+](=O)[O-])cc1)C(=O)O; Phe(4-amidino) = N=C(N)c1ccc(C[C@H](N)C(=O)O)cc1; Arg(NO2) = N=C(NCCC[C@H](N)C(=O)O)N[N+](=O)[O-]; Cha = N[C@@H](CC1CCCCC1)C(=O)O; Phg = N[C@H](C(=O)O)c1ccccc1; Alloc = C=CCOC(=O)*
# pKi per entry for human factor VIIa and TF (Homo sapiens, UniProt P08709)
Numbers only, as −log10 of the molar value.

Known pKi results, listed for orientation:
# compound, pKi
rows = [
    ("C=CCOC(=O)N[C@@H](Cc1ccc(C(=N)N)cc1)C(=O)N[C@@H](CCC(=O)O)C(=O)N[C@H](C(=O)N[C@@H](CC1CCCCC1)C(N)=O)c1ccccc1 [Alloc--pAph--Glu--Phg--Cha--NH2] (Alloc-[Phe(4-amidino)]E[Phg][Cha]-NH2)", 7.77),
    ("C=CCOC(=O)N[C@@H](Cc1ccc(C(=N)N)cc1)C(=O)N[C@@H](CCC(=O)O)C(=O)N[C@@H](CCCN)C(N)=O", 5.21),
    ("C=CCOC(=O)N[C@@H](Cc1ccc(C(=N)N)cc1)C(=O)N[C@@H](CCC(=O)O)C(=O)N[C@H](CCCNC(=N)N)C(=O)N[C@@H](CC1CCCCC1)C(N)=O [Alloc--pAph--Glu--D--Arg--Cha--NH2] (Alloc-[Phe(4-amidino)]E[dR][Cha]-NH2)", 4.92),
]

Give pKi for all compounds that follow.
1. C=CCOC(=O)N[C@@H](Cc1ccc(C(=N)N)cc1)C(=O)N[C@@H](CCC(=O)O)C(=O)N[C@@H](CCSC)C(=O)N[C@@H](CC1CCCCC1)C(N)=O [Alloc--pAph--Glu--Met--Cha--NH2] (Alloc-[Phe(4-amidino)]EM[Cha]-NH2)
2. C=CCOC(=O)N[C@@H](Cc1ccc(C(=N)N)cc1)C(=O)N[C@@H](CCC(=O)O)C(=O)N[C@@H](CC(N)=O)C(=O)NCC1CCCCC1
3. C=CCOC(=O)N[C@@H](Cc1ccc(C(=N)N)cc1)C(=O)N[C@@H](CCC(=O)O)C(=O)N[C@@H](CCNC(C)=N)C(=O)N[C@@H](CC1CCCCC1)C(N)=O
4. C=CCOC(=O)N[C@@H](Cc1ccc(C(=N)N)cc1)C(=O)N[C@@H](CCC(=O)O)C(=O)N[C@@H](Cc1ccc([N+](=O)[O-])cc1)C(=O)N[C@@H](CC1CCCCC1)C(N)=O [Alloc--pAph--Glu--Phe(4-NO2)--Cha--NH2] (Alloc-[Phe(4-amidino)]E[Phe(4-NO2)][Cha]-NH2)
5. C=CCOC(=O)N[C@@H](Cc1ccc(C(=N)N)cc1)C(=O)N[C@@H](CCC(=O)O)C(=O)N[C@@H](CCCNC(=N)N[N+](=O)[O-])C(=O)N[C@@H](CC1CCCCC1)C(N)=O [Alloc--pAph--Glu--Arg(NO2)--Cha--NH2] (Alloc-[Phe(4-amidino)]E[Arg(NO2)][Cha]-NH2)

1. 6.96
2. 6.82
3. 6.72
4. 7.34
5. 7.85

###

Target: human factor VIIa and TF (Homo sapiens)
Construct: human factor VIIa and TF
Experiment: Determination of Ki for FVIIa inhibition (chromogenic assay, substrate S-2288)
Assay type: biochemical
Settings: human factor VIIa 5 nM and TF 10 nM, S-2288 500 μM, 25° C., 15 minute preincubation, pH 8.15; read-out: Factor VIIa inhibitory activities Ki
Non-standard residues stand in square brackets, D forms with d. Residues, ends and D or L forms follow the SMILES beside them. *: point of attachment. Phe(4-guanidino) = N=C(N)Nc1ccc(C[C@H](N)C(=O)O)cc1; Phe(4-amidino) = N=C(N)c1ccc(C[C@H](N)C(=O)O)cc1; Orn(acetimidoyl) = CC(=N)NCCC[C@H](N)C(=O)O; d(hArg) = N=C(N)NCCCC[C@@H](N)C(=O)O; Abu(4-CN) = N#CCC[C@H](N)C(=O)O; Cha = N[C@@H](CC1CCCCC1)C(=O)O; Chg = N[C@H](C(=O)O)C1CCCCC1; Dab = NCC[C@H](N)C(=O)O; Alloc = C=CCOC(=O)*
Kindly supply the reported pKi values for the records listed here.
One number for each entry, as −log10 of the molar value.

Reference set (8 entries):
# compound, reported
measured = [
    ("C=CCOC(=O)N[C@@H](Cc1ccc(C(=N)N)cc1)C(=O)N[C@@H](CCC(=O)O)C(=O)N[C@@H](Cc1ccc(NC(=N)N)cc1)C(=O)N[C@@H](CC1CCCCC1)C(N)=O [Alloc-pAph-Glu-Phe(4-guanidino)-Cha-NH2] (Alloc-[Phe(4-amidino)]E[Phe(4-guanidino)][Cha]-NH2)", 6.92),
    ("C=CCOC(=O)N[C@@H](Cc1ccc(C(=N)N)cc1)C(=O)N[C@@H](CCC(=O)O)C(=O)N[C@@H](CC(N)=O)C(=O)NCCC(c1ccccc1)c1ccccc1", 7.62),
    ("C=CCOC(=O)N[C@@H](Cc1ccc(C(=N)N)cc1)C(=O)N[C@@H](CCC(=O)O)C(=O)N[C@@H](CCCNC(=N)N)C(=O)N[C@H](C(N)=O)C1CCCCC1 [Alloc--pAph--Glu--Arg--Chg--NH2, Alloc-pAph-Glu-Arg-Chg-NH2] (Alloc-[Phe(4-amidino)]ER[Chg]-NH2)", 6.62),
    ("C=CCOC(=O)N[C@@H](Cc1ccc(C(=N)N)cc1)C(=O)N[C@@H](CCC(=O)O)C(=O)N[C@@H](CCC#N)C(=O)N[C@@H](CC1CCCCC1)C(N)=O [Alloc--pAph--Glu-2-Abu(4-CN)--Cha--NH2] (Alloc-[Phe(4-amidino)]E[Abu(4-CN)][Cha]-NH2)", 7.20),
    ("C=CCOC(=O)N[C@@H](Cc1ccc(C(=N)N)cc1)C(=O)N[C@@H](CCC(=O)O)C(=O)N[C@@H](CCCNC(C)=N)C(=O)N[C@@H](CC1CCCCC1)C(N)=O (Alloc-[Phe(4-amidino)]E[Orn(acetimidoyl)][Cha]-NH2)", 6.89),
    ("C=CCOC(=O)N[C@@H](Cc1ccc(C(=N)N)cc1)C(=O)N[C@@H](CCC(=O)O)C(=O)N[C@@H](CC(N)=O)C(=O)NCc1cccc2ccccc12", 7.51),
    ("C=CCOC(=O)N[C@@H](Cc1ccc(C(=N)N)cc1)C(=O)N[C@@H](CCC(=O)O)C(=O)N[C@@H](CCN)C(=O)N[C@@H](CC1CCCCC1)C(N)=O [Alloc--pAph--Glu--Dab--Cha--NH2, Alloc-pAph-Glu-Dab-Cha-NH2] (Alloc-[Phe(4-amidino)]E[Dab][Cha]-NH2)", 7.26),
    ("C=CCOC(=O)N[C@@H](Cc1ccc(C(=N)N)cc1)C(=O)N[C@@H](CCC(=O)O)C(=O)N[C@@H](CC(N)=O)C(=O)NCCN1CCOCC1", 6.39),
]

Next, consider the following compound.
In one line, give reported pKi of the entry C=CCOC(=O)N[C@@H](Cc1ccc(C(=N)N)cc1)C(=O)N[C@@H](CCC(=O)O)C(=O)N[C@H](CCCCNC(=N)N)C(=O)N[C@@H](CC1CCCCC1)C(N)=O (Alloc-[Phe(4-amidino)]E[d(hArg)][Cha]-NH2) .
4.66
